test system: Pseudomonas aeruginosa; assay: Antimicrobial activity against Pseudomonas aeruginosa RDK 184 assessed as reduction in bacterial growth incubated for 20 hrs by broth microdilution analysis; format: functional
Property: MIC

As a guide, the following entries are already answered.
>>> result("O=c1ccc2ncc(=O)n3c2n1C[C@H]3CN1CCC(NCc2cc3c(cn2)OCCC3)CC1")
"17.8 µM"
>>> result("COc1ccc2nccc(CCN3CCC(NC(=O)c4cc(F)c(Br)c(F)c4)CC3)c2n1")
"> 253 µM"
>>> result("COc1ccc2nccc(CCN3CCC(NC(=O)c4ccc(I)c(F)c4)CC3)c2n1")
"> 240 µM"
>>> result("COc1ccc2nccc(OC[C@H]3CC[C@H](NCc4cc(F)c(Br)c(F)c4)CC3)c2n1")
"260 µM"
>>> result("COc1ccc2nccc(OC[C@@H]3CC[C@@H](NCc4cc(F)c(Br)c(F)c4)CO3)c2n1")
"279 µM"

QUERY: Determine from records and report MIC for COc1ccc2nccc(OC[C@H]3CC[C@H](NC(=O)c4cc(F)c(Br)c(F)c4)CC3)c2n1
RESULT: > 64.8 µM

QUERY: Determine from records and report MIC for COc1ccc2nccc(OC[C@@H]3CC[C@@H](NC(=O)c4ccc(I)c(F)c4)CO3)c2n1
RESULT: > 238 µM

QUERY: Determine from records and report MIC for COc1ccc2nccc(CCN3CCC(NC(=O)c4cc(F)c(Cl)c(F)c4)CC3)c2n1
RESULT: > 278 µM
